From: ChEMBL document CHEMBL3399918

Assay protocol: Cytotoxicity against human BEAS2B cells after 72 hrs by MTT assay
Assay type: cell-based, BEAS-2B
Study conditions: beas-2b, 72 h
Let's look at some compounds and their measured LC50.
Metric: LC50 (µM)

Item smiles: N#C[Se]c1ccc(NC(=O)Oc2ccccc2)cc1
Result units: µM
Number: 69.3

Item smiles: CCCCOC(=O)Nc1ccc([Se][Se]c2ccc(NC(=O)OCCCC)cc2)cc1
Result units: µM
Number: 75

Item smiles: CCOC(=O)Nc1ccc([Se]C#N)cc1
Result units: µM
Number: 72.2

Item smiles: O=C(Nc1ccc([Se][Se]c2ccc(NC(=O)OCc3ccc([N+](=O)[O-])cc3)cc2)cc1)OCc1ccc([N+](=O)[O-])cc1
Result units: µM
Number: 61.6

Item smiles: O=C(Nc1ccc([Se][Se]c2ccc(NC(=O)OCc3ccccc3)cc2)cc1)OCc1ccccc1
Result units: µM
Number: 58.5

* * *

Assay protocol: Cytotoxicity against human BEAS2B cells after 72 hrs by MTT assay
Type: cell-based, BEAS-2B
Study conditions: beas-2b, 72 h
Ranges used to classify LC50: bin 0 = under 60 µM, bin 1 = from 60 µM up to 70 µM, bin 2 = 70 µM and over

Item smiles: CCCCOC(=O)Nc1ccc([Se]C#N)cc1
Group: bin 0
--
Item smiles: O=C(Nc1ccc([Se][Se]c2ccc(NC(=O)Oc3ccc(Cl)cc3)cc2)cc1)Oc1ccc(Cl)cc1
Group: bin 1
--
Item smiles: O=C(Nc1ccc([Se][Se]c2ccc(NC(=O)Oc3ccccc3)cc2)cc1)Oc1ccccc1
Group: bin 0
--
Item smiles: N#C[Se]c1ccc(NC(=O)OCC2=Cc3ccccc3S2(=O)=O)cc1
Group: bin 1
--
Item smiles: N#C[Se]c1ccc(NC(=O)OCc2ccc([N+](=O)[O-])cc2)cc1
Group: bin 1
--
Item smiles: CCCOC(=O)Nc1ccc([Se]C#N)cc1
Group: bin 2

* * *

Let's look at some compounds and their measured GI50.
Test system: CCRF-CEM
Assay protocol: Cytotoxicity against human CCRF-CEM cells after 72 hrs by MTT assay
Type: functional
Metric: GI50 (µM)

Item smiles: N#C[Se]c1ccc(NC(=O)Oc2ccccc2)cc1
Metric: GI50
Number: 22.9

Item smiles: Cc1ccc(OC(=O)Nc2ccc([Se]C#N)cc2)cc1
Metric: GI50
Number: 17.4

Item smiles: O=C(Nc1ccc([Se][Se]c2ccc(NC(=O)Oc3ccccc3)cc2)cc1)Oc1ccccc1
Metric: GI50
Number: 22.4

Item smiles: O=C(Nc1ccc([Se][Se]c2ccc(NC(=O)OCc3ccccc3)cc2)cc1)OCc1ccccc1
Metric: GI50
Number: 6.4

Item smiles: COc1ccc(OC(=O)Nc2ccc([Se]C#N)cc2)cc1
Metric: GI50
Number: 13

Item smiles: CCCOC(=O)Nc1ccc([Se][Se]c2ccc(NC(=O)OCCC)cc2)cc1
Metric: GI50
Number: 4.3

Item smiles: CC(C)COC(=O)Nc1ccc([Se]C#N)cc1
Metric: GI50
Number: 9.3

Item smiles: O=C(Nc1ccc([Se][Se]c2ccc(NC(=O)OCC3c4ccccc4-c4ccccc43)cc2)cc1)OCC1c2ccccc2-c2ccccc21
Metric: GI50
Number: 14.9

Item smiles: CCOC(=O)Nc1ccc([Se][Se]c2ccc(NC(=O)OCC)cc2)cc1
Metric: GI50
Number: 24.6

Item smiles: CCCCOC(=O)Nc1ccc([Se][Se]c2ccc(NC(=O)OCCCC)cc2)cc1
Metric: GI50
Number: 16.7

Item smiles: C=CCOC(=O)Nc1ccc([Se]C#N)cc1
Metric: GI50
Number: 9.2

Item smiles: CCCCCCOC(=O)Nc1ccc([Se][Se]c2ccc(NC(=O)OCCCCCC)cc2)cc1
Metric: GI50
Number: 6.2
